Measured shrunken log2 fold change accompanies every entry in the list below.
System: Escherichia coli TOP10
Experiment: shrunken log2 fold change of peptide-encoding DNA abundance (4.5 h post-induction vs induction); higher = less antimicrobial activity (less host growth inhibition)
Settings: time post-induction: 4.5 h; library: site-saturation at positions 5, 18, 19, 20

Please review the entries below; each comes with its answer.
INSERT INTO results (sequence_chain, reported) VALUES
  ('RRIRIRPPRLPRPRPRPALWPRP', 0.199),
  ('RRIRDRPPRLPRPRPRPVHYPRP', 0.0175),
  ('RRIRPRPPRLPRPRPRPEAMPRP', 0.0142),
  ('RRIRFRPPRLPRPRPRPSFCPRP', -0.373),
  ('RRIRLRPPRLPRPRPRPNQFPRP', 0.0261);

Ask: Give shrunken log2 fold change (Escherichia coli TOP10) of the following sequence: RRIRDRPPRLPRPRPRPLIWPRP
Result: 0.176

Ask: Give shrunken log2 fold change (Escherichia coli TOP10) of the following sequence: RRIRHRPPRLPRPRPRPTRSPRP
Result: -0.0409

Ask: Give shrunken log2 fold change (Escherichia coli TOP10) of the following sequence: RRIRLRPPRLPRPRPRPYIVPRP
Result: -0.0573

Ask: Give shrunken log2 fold change (Escherichia coli TOP10) of the following sequence: RRIRMRPPRLPRPRPRPWFVPRP
Result: -0.283

====

Test system: Escherichia coli TOP10
Assay: shrunken log2 fold change of peptide-encoding DNA abundance (4.5 h post-induction vs induction); higher = less antimicrobial activity (less host growth inhibition)
Details: time post-induction: 4.5 h; library: site-saturation at positions 5, 18, 19, 20
Measured shrunken log2 fold change accompanies every entry in the list below.
Number only, no unit.

Please review the entries below; each comes with its answer.
INSERT INTO assay_data (sequence_chain, system_tested, reported) VALUES
  ('RRIRFRPPRLPRPRPRPIELPRP', 'Escherichia coli TOP10', -0.537),
  ('RRIRHRPPRLPRPRPRPEKEPRP', 'Escherichia coli TOP10', -0.00451),
  ('RRIRARPPRLPRPRPRPQNAPRP', 'Escherichia coli TOP10', 0.243);

Ask: Give the measured shrunken log2 fold change of RRIRFRPPRLPRPRPRPGVIPRP .
Result: -0.356

Ask: Give the measured shrunken log2 fold change of RRIRMRPPRLPRPRPRPKGHPRP .
Result: 0.0377

====

Test system: Escherichia coli TOP10;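 further: peptides expressed intracellularly from a pBAD plasmid library in pooled LB shake-flask culture, induced with 0.3% L-arabinose, DNA abundance read by NGS, three biological replicates, DESeq2 with apeglm shrinkage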
Assay: shrunken log2 fold change of peptide-encoding DNA abundance (4.5 h post-induction vs induction); higher = less antimicrobial activity (less host growth inhibition)
Conditions: time post-induction: 4.5 h; library: site-saturation at positions 5, 18, 19, 20
Record yes (1) whenever shrunken log2 fold change is at -0.08 or higher; record no (0) when lower.

Example results:
INSERT INTO results (sequence_chain, class_assignment) VALUES
  ('RRIRMRPPRLPRPRPRPAQFPRP', 'no (0)'),
  ('RRIRYRPPRLPRPRPRPQCCPRP', 'no (0)'),
  ('RRIRGRPPRLPRPRPRPHPEPRP', 'yes (1)'),
  ('RRIRRRPPRLPRPRPRPFRNPRP', 'yes (1)'),
  ('RRIRRRPPRLPRPRPRPKYWPRP', 'yes (1)'),
  ('RRIRERPPRLPRPRPRPMSKPRP', 'no (0)'),
  ('RRIRMRPPRLPRPRPRPDSDPRP', 'yes (1)'),
  ('RRIRDRPPRLPRPRPRPCHTPRP', 'no (0)');

Ask: Please check the record RRIRRRPPRLPRPRPRPIAVPRP and state if its shrunken log2 fold change is at or above -0.08.
Result: no (0)

Ask: Please check the record RRIRFRPPRLPRPRPRPAIVPRP and state if its shrunken log2 fold change is at or above -0.08.
Result: yes (1)

Ask: Please check the record RRIRARPPRLPRPRPRPKTMPRP and state if its shrunken log2 fold change is at or above -0.08.
Result: yes (1)

// data source = the supplement of paper PMC9112550
